# subject-of-test: human TRPV1 (Homo sapiens, UniProt Q8NER1)
# Construct: using primers designed surrounding the complete hTRPV1 open reading frame; expressed in transfected cells; host or cells: CHO-K1 cells stably transfected with pcDNA3.1(-)-hVR1 plasmid
# Sequence (Q8NER1 whole entry): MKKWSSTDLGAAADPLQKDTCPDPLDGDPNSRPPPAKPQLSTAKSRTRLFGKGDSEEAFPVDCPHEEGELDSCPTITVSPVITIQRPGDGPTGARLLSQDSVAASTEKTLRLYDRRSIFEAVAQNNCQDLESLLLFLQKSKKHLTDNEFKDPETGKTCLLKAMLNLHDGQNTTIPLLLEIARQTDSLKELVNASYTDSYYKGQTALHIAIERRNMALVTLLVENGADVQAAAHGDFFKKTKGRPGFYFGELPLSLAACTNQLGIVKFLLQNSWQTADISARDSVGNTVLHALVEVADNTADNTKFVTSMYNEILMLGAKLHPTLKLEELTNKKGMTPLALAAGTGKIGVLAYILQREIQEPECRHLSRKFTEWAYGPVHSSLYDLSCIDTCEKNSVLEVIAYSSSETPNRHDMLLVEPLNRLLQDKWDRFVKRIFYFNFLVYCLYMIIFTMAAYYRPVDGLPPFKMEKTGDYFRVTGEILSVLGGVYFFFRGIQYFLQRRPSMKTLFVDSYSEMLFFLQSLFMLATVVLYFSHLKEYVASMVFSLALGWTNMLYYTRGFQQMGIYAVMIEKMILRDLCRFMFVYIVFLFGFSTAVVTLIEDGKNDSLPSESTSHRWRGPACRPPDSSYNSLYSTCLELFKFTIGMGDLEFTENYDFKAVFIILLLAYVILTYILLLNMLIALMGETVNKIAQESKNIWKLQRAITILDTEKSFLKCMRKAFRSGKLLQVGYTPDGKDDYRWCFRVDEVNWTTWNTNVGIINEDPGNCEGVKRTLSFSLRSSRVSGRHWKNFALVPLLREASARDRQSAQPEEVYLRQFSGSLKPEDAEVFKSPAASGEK
# assay-comment: Capsaicin-based assay, Protocol 2 (TRPV1/CHO cells, Fluo-4, FLIPR)
# Type: cell-based
# details: capsaicin 100 nM final, mean ± SEM, number of trials in parentheses, read-out: TRPV1 IC50 Potency, Human Capsaicin CHO (hCAP-CHO)
parameter-measured: IC50
Please append the unit to your numeric answer.

Prompt: Record request: IC50 value, item O=C(Nc1nc2ccc(F)cc2s1)N1CCC(F)(c2ncccc2Cl)CC1
Completion: 508 nM

Prompt: # iterate: CC(C)Oc1ccc(NC(=O)N2CC=C(c3ncc(CO)cc3Cl)CC2)cc1C(F)(F)F
Completion: 122 nM

Prompt: # iterate: Cc1cc2nc(NC(=O)N3CC=C(c4ncc([C@H](O)CO)cc4Cl)CC3)sc2cc1C
Completion: 244 nM

Prompt: # iterate: O=C(Nc1ccc(C(F)(F)F)cc1)N1CCC(F)(c2ncc([C@H](O)CO)cc2Cl)CC1
Completion: 38.7 nM

Prompt: # iterate: O=C(Nc1ccc(C(F)(F)F)c(F)c1)N1CC=C(c2ncc([C@H](O)CO)cc2Cl)CC1
Completion: 53.5 nM

Prompt: # iterate: O=C(Nc1ccc(Cl)c(C(F)(F)F)c1)N1CCC(F)(c2ncc([C@H](O)CO)cc2F)CC1
Completion: 133 nM

Prompt: # iterate: O=C(Nc1ccc(C(F)(F)F)cn1)N1CCC(F)(c2ncccc2Cl)CC1
Completion: 167 nM

Prompt: # iterate: CC(C)(C)c1ccc(NC(=O)N2CC=C(c3ncc([C@H](O)CO)cc3F)CC2)cc1 [Compound D1]
Completion: 16.5 nM

Prompt: # iterate: O=C(Nc1ccc(C(F)(F)F)cc1)N1CC=C(c2ncc([C@@H](O)CO)cc2Cl)CC1
Completion: 37.1 nM

Prompt: # iterate: COc1cc(NC(=O)N2CC=C(c3ncc([C@@H](O)CO)cc3Cl)CC2)ccc1C(F)(F)F
Completion: 230 nM

Prompt: # iterate: O=C(Nc1ccc(C(F)(F)F)c(F)c1)N1CCC(F)(c2ncc([C@@H](O)CO)cc2Cl)CC1
Completion: 19.9 nM

The measured values listed here are drawn from patent US20090170867A1.
